The measurements presented in this section are drawn from patent US20050209278A1.

- targetUnderTest: MMP-14 (Homo sapiens, UniProt P50281)
- Construct: The catalytic domain enzyme was expressed in E. coli inclusion bodies, solubilized in urea; made in house
- assayComment: In vitro MMP inhibition, Ki determination (fluorogenic substrate II)
- Type: biochemical
- settings: value outside parentheses; read-out: MMP-14 Ki
pKi: −log10 of the molar value.
The following molecules are listed with their measured pKi values.
valueKind: pKi

>>> measvalue("CCCCOc1ccc(N2CCN(S(=O)(=O)C3(C(=O)NO)CCN(C(=O)C(C)(C)C)CC3)CC2)cc1")
"< 5.00"
>>> measvalue("O=C(NO)C1(S(=O)(=O)N2CCN(c3ncc(-c4cccc(-c5ccccc5)c4)s3)CC2)CCOCC1")
"< 5.00"
>>> measvalue("O=C(NO)C1(S(=O)(=O)N2CCN(c3ccc(OCCCC(F)(F)F)cc3)CC2)CC(O)C1 (centres unmarked)")
"< 5.00"
>>> measvalue("CCCCOc1ccc(N2CCN(S(=O)(=O)C3(C(=O)NO)CCN(Cc4cccnc4)CC3)CC2)cc1F")
5.26
>>> measvalue("O=C(NO)C1(S(=O)(=O)N2CCC(N3CCN(c4ccc(Cl)cc4)CC3)CC2)CCOCC1")
"< 5.00"
